- testedSystem: Neuronal acetylcholine receptor; alpha9/alpha10 (Homo sapiens) (UniProt Q9UGM1+Q9GZZ6)
- test: Partial agonist activity at human alpha9alpha10 nAChR expressed as xenopus laevis oocytes assessed as increase in receptor desensitization by measuring fold change in maximum response (Imax) measured after 120 secs by two-electrode voltage-clamp electrophysiology method relative to acetylcholine
- Format: cell-based
- cond: Oocyte, filed as partial agonist, time 120.0 sec
quantityName: fold change (FC)

linenotation=CC[N+]1(CC)CCN(c2ccc(NC(=O)c3cccc(C)n3)cc2)CC1 testedsystem="Neuronal acetylcholine receptor; alpha9/alpha10 (Homo sapiens) (UniProt Q9UGM1+Q9GZZ6)" val=0.53
linenotation=CC[N+]1(CC)CCN(c2ccc(-n3cccn3)cc2)CC1 testedsystem="Neuronal acetylcholine receptor; alpha9/alpha10 (Homo sapiens) (UniProt Q9UGM1+Q9GZZ6)" val=0.59
linenotation=CCCNC(=O)c1ccc(N2CC[N+](CC)(CC)CC2)cc1 testedsystem="Neuronal acetylcholine receptor; alpha9/alpha10 (Homo sapiens) (UniProt Q9UGM1+Q9GZZ6)" val=0.79
linenotation=CC[N+]1(C)CCN(c2ccc(NC(C)=O)cc2)CC1 testedsystem="Neuronal acetylcholine receptor; alpha9/alpha10 (Homo sapiens) (UniProt Q9UGM1+Q9GZZ6)" val=3.3

* * *

- testedSystem: Neuronal acetylcholine receptor subunit alpha-7 (Homo sapiens, UniProt P36544)
- Sequence (P36544 whole entry): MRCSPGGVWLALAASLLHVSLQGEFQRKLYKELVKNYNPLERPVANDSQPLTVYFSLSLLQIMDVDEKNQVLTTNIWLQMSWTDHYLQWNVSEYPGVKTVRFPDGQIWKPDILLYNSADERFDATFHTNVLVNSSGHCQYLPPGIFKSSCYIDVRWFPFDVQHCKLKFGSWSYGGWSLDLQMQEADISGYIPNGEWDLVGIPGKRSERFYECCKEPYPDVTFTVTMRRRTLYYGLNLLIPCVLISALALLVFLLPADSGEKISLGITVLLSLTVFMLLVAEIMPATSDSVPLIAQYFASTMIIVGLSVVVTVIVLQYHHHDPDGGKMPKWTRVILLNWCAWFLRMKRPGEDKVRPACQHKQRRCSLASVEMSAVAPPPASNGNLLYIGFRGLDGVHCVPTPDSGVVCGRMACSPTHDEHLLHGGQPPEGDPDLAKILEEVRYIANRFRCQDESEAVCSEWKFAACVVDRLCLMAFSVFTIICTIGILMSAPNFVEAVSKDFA
- test: Agonist activity at human alpha7 nAChR expressed as xenopus laevis oocytes assessed as increase in receptor desensitization by measuring fold change in peak current response at 30 uM incubated for 120 secs presence of PNU-120596 by two-electrode voltage-clamp electrophysiology method relative to acetylcholine
- Assay type: cell-based
- cond: Oocyte, filed as agonist, time 120.0 sec
Binary call on fold change (FC) with cut-off 0.2: strictly below means label 1, and equality or higher means label 0.

linenotation=CCCNC(=O)c1ccc(N2CC[N+](CC)(CC)CC2)cc1 qualitativelabel="label 1"
linenotation=CC[N+]1(C)CCN(c2ccc(NC(C)=O)cc2)CC1 qualitativelabel="label 1"
linenotation=CC[N+]1(CC)CCN(c2ccc(C(N)=O)cc2)CC1 qualitativelabel="label 1"
linenotation=CC[N+]1(CC)CCN(c2ccc(-n3cccn3)cc2)CC1 qualitativelabel="label 1"
linenotation=CC[N+]1(CC)CCN(c2ccc(-c3ncco3)cc2)CC1 qualitativelabel="label 1"
linenotation=CC[N+]1(CC)CCN(c2ccc(C(=O)N3CCCC3)cc2)CC1 qualitativelabel="label 1"
linenotation=CC[N+]1(CC)CCN(c2ccc(C(=O)Nc3cccc(C)c3)cc2)CC1 qualitativelabel="label 1"
linenotation=CC[N+]1(CC)CCN(c2ccc(-n3cccc3)cc2)CC1 qualitativelabel="label 1"
linenotation=CC[N+]1(C)CCN(c2ccc(C(=O)Nc3cccc(C)n3)cc2)CC1.[I-] qualitativelabel="label 1"
linenotation=Cc1cccc(NC(=O)c2ccc(N3CC[N+](C)(C)CC3)cc2)n1 qualitativelabel="label 1"
linenotation=CC[N+]1(C)CCN(c2ccc(NC(=O)c3cccc(C)n3)cc2)CC1.[I-] qualitativelabel="label 0"
linenotation=CC[N+]1(CC)CCN(c2ccc(C(=O)Nc3ccccn3)cc2)CC1 qualitativelabel="label 1"
linenotation=CC[N+]1(CC)CCN(c2ccc(NC(=O)c3cccc(C)n3)cc2)CC1 qualitativelabel="label 0"

* * *

- testedSystem: Neuronal acetylcholine receptor subunit alpha-9 (Homo sapiens)
- Sequence (Q9UGM1 whole entry): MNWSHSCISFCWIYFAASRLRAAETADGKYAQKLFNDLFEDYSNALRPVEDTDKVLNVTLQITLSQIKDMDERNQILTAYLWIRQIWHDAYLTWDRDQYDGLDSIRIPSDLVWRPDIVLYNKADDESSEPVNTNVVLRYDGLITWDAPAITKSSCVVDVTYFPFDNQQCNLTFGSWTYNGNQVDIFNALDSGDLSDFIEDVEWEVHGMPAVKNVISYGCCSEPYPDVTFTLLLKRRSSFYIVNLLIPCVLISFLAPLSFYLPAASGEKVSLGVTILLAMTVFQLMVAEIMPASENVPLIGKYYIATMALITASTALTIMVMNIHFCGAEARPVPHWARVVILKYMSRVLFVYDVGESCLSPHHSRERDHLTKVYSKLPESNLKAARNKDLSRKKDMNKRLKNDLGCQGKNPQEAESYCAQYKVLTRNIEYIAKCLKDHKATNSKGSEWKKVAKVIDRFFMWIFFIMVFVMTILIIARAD
- test: Agonist activity at human alpha9 nAChR expressed as xenopus laevis oocytes assessed as increase in receptor desensitization by measuring fold change in maximum response (Imax) measured after 120 secs by two-electrode voltage-clamp electrophysiology method relative to acetylcholine
- Assay type: cell-based
- cond: Oocyte, filed as agonist, time 120.0 sec
Reported fold change (FC) values for a set of compounds
quantityName: fold change (FC)

linenotation=CC[N+]1(CC)CCN(c2ccc(-n3cccn3)cc2)CC1 val=1.01
linenotation=CC[N+]1(CC)CCN(c2ccc(-c3ncco3)cc2)CC1 val=1.29
linenotation=CC[N+]1(CC)CCN(c2ccc(C(=O)Nc3cccc(C)c3)cc2)CC1 val=1.25
linenotation=CC[N+]1(C)CCN(c2ccc(NC(C)=O)cc2)CC1 val=0.75
linenotation=CC[N+]1(CC)CCN(c2ccc(C(N)=O)cc2)CC1 val=0.8
linenotation=CC[N+]1(C)CCN(c2ccc(NC(=O)c3cccc(C)n3)cc2)CC1.[I-] val=1.01
linenotation=CCCNC(=O)c1ccc(N2CC[N+](CC)(CC)CC2)cc1 val=1.13
linenotation=CC[N+]1(CC)CCN(c2ccc(NC(=O)c3cccc(C)n3)cc2)CC1 val=1.24
linenotation=CC[N+]1(CC)CCN(c2ccc(C(=O)Nc3ccccn3)cc2)CC1 val=1.18
linenotation=CC[N+]1(C)CCN(c2ccc(C(=O)Nc3cccc(C)n3)cc2)CC1.[I-] val=1.19

* * *

Reported Activity values for a set of molecules
- Tested on: Oocyte
- test: Agonist activity at mouse muscle alpha1beta1epsilondelta nAChR expressed in xenopus laevis oocytes at 30 uM measured after 120 secs by two-electrode voltage-clamp electrophysiology method relative to control
- Assay type: cell-based
- cond: time 120.0 sec
quantityName: Activity

linenotation=CC[N+]1(C)CCN(c2ccc(C(=O)Nc3cccc(C)n3)cc2)CC1.[I-] val="< 1%"
linenotation=CC[N+]1(CC)CCN(c2ccc(NC(=O)c3cccc(C)n3)cc2)CC1 val="< 1%"
linenotation=CC[N+]1(CC)CCN(c2ccc(-n3cccn3)cc2)CC1 val="< 1%"
linenotation=CCCNC(=O)c1ccc(N2CC[N+](CC)(CC)CC2)cc1 val="< 1%"
linenotation=CC[N+]1(CC)CCN(c2ccc(C(=O)Nc3cccc(C)c3)cc2)CC1 val="< 1%"
linenotation=Cc1cccc(NC(=O)c2ccc(N3CC[N+](C)(C)CC3)cc2)n1 val="< 1%"
linenotation=CC[N+]1(C)CCN(c2ccc(NC(C)=O)cc2)CC1 val="< 1%"
linenotation=CC[N+]1(C)CCN(c2ccc(NC(=O)c3cccc(C)n3)cc2)CC1.[I-] val="< 1%"
linenotation=CC[N+]1(CC)CCN(c2ccc(C(=O)N3CCCC3)cc2)CC1 val="< 1%"
linenotation=CC[N+]1(CC)CCN(c2ccc(-n3cccc3)cc2)CC1 val="< 1%"
linenotation=CC[N+]1(CC)CCN(c2ccc(-c3ncco3)cc2)CC1 val="< 1%"
linenotation=CC[N+]1(CC)CCN(c2ccc(C(=O)Nc3ccccn3)cc2)CC1 val="< 1%"

* * *

- testedSystem: Neuronal acetylcholine receptor; alpha4/beta2 (Homo sapiens) (UniProt P17787+P43681)
- test: Inhibition of acetylcholine induced response in human alpha4beta2 nAChR expressed in xenopus laevis oocytes assessed as fold change at 30 uM preincubated with 3 uM acetylcholine followed by compound administration for 12 sec and measured 181 sec post washout by two-electrode voltage-clamp electrophysiology method relative to acetylcholine alone
- Format: cell-based
- cond: Oocyte
quantityName: fold change (FC)

linenotation=CC[N+]1(CC)CCN(c2ccc(-n3cccn3)cc2)CC1 quantityname="fold change (FC)" val=0.913
linenotation=CCCNC(=O)c1ccc(N2CC[N+](CC)(CC)CC2)cc1 quantityname="fold change (FC)" val=0.946
linenotation=CC[N+]1(CC)CCN(c2ccc(-c3ncco3)cc2)CC1 quantityname="fold change (FC)" val=0.823
linenotation=Cc1cccc(NC(=O)c2ccc(N3CC[N+](C)(C)CC3)cc2)n1 quantityname="fold change (FC)" val=0.912
linenotation=CC[N+]1(CC)CCN(c2ccc(C(=O)Nc3cccc(C)c3)cc2)CC1 quantityname="fold change (FC)" val=0.807
linenotation=CC[N+]1(C)CCN(c2ccc(NC(C)=O)cc2)CC1 quantityname="fold change (FC)" val=1.19

* * *

Reported fold change (FC) values for a set of molecules
- testedSystem: Neuronal acetylcholine receptor; alpha3/beta4 (Homo sapiens) (UniProt P30926+P32297)
- test: Inhibition of acetylcholine induced response in human alpha3beta4 nAChR expressed in xenopus laevis oocytes assessed as fold change at 100 uM preincubated with 3 uM acetylcholine followed by compound administration for 12 sec and measured 181 sec post washout by two-electrode voltage-clamp electrophysiology method relative to acetylcholine alone
- Type: cell-based
- cond: Oocyte
quantityName: fold change (FC)

linenotation=CC[N+]1(C)CCN(c2ccc(NC(=O)c3cccc(C)n3)cc2)CC1.[I-] quantityname="fold change (FC)" val=0.659
linenotation=CC[N+]1(CC)CCN(c2ccc(-n3cccn3)cc2)CC1 quantityname="fold change (FC)" val=0.736
linenotation=CCCNC(=O)c1ccc(N2CC[N+](CC)(CC)CC2)cc1 quantityname="fold change (FC)" val=0.65
linenotation=CC[N+]1(CC)CCN(c2ccc(C(=O)N3CCCC3)cc2)CC1 quantityname="fold change (FC)" val=0.849
linenotation=CC[N+]1(C)CCN(c2ccc(NC(C)=O)cc2)CC1 quantityname="fold change (FC)" val=0.798
linenotation=CC[N+]1(CC)CCN(c2ccc(-c3ncco3)cc2)CC1 quantityname="fold change (FC)" val=0.507
linenotation=CC[N+]1(C)CCN(c2ccc(C(=O)Nc3cccc(C)n3)cc2)CC1.[I-] quantityname="fold change (FC)" val=0.849
linenotation=CC[N+]1(CC)CCN(c2ccc(C(=O)Nc3cccc(C)c3)cc2)CC1 quantityname="fold change (FC)" val=1.04
linenotation=CC[N+]1(CC)CCN(c2ccc(C(=O)Nc3ccccn3)cc2)CC1 quantityname="fold change (FC)" val=0.789
linenotation=Cc1cccc(NC(=O)c2ccc(N3CC[N+](C)(C)CC3)cc2)n1 quantityname="fold change (FC)" val=0.838
linenotation=CC[N+]1(CC)CCN(c2ccc(NC(=O)c3cccc(C)n3)cc2)CC1 quantityname="fold change (FC)" val=0.415
linenotation=CC[N+]1(CC)CCN(c2ccc(-n3cccc3)cc2)CC1 quantityname="fold change (FC)" val=0.387
